# Test system: Escherichia coli TOP10;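 note: peptides expressed intracellularly from a pBAD plasmid library in pooled LB shake-flask culture, induced with 0.3% L-arabinose, DNA abundance read by NGS, three biological replicates, DESeq2 with apeglm shrinkage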
# assay info: shrunken log2 fold change of peptide-encoding DNA abundance (4.5 h post-induction vs induction); higher = less antimicrobial activity (less host growth inhibition)
# condition label: time post-induction: 4.5 h; library: site-saturation at positions 5, 18, 19, 20
quantity name: shrunken log2 fold change
Answers are plain numbers.

Take a look at these entries with their results.
>>> df
    macromolecule_sequence             test_system              quantity_name  reported
0  RRIRGRPPRLPRPRPRPANVPRP  Escherichia coli TOP10  shrunken log2 fold change    -0.126
1  RRIRWRPPRLPRPRPRPAGSPRP  Escherichia coli TOP10  shrunken log2 fold change    -0.176
2  RRIRYRPPRLPRPRPRPHWTPRP  Escherichia coli TOP10  shrunken log2 fold change   -0.0421
3  RRIRTRPPRLPRPRPRPNNWPRP  Escherichia coli TOP10  shrunken log2 fold change     -0.12
4  RRIRRRPPRLPRPRPRPMQLPRP  Escherichia coli TOP10  shrunken log2 fold change     0.596
5  RRIRERPPRLPRPRPRPNVLPRP  Escherichia coli TOP10  shrunken log2 fold change   -0.0106

Count: 5. Required value per item: shrunken log2 fold change.
1. RRIRERPPRLPRPRPRPTHPPRP
2. RRIRERPPRLPRPRPRPVGQPRP
3. RRIRKRPPRLPRPRPRPHRWPRP
4. RRIRARPPRLPRPRPRPFPVPRP
5. RRIRPRPPRLPRPRPRPSNKPRP

1. 0.447
2. 0.129
3. 0.00588
4. -0.0583
5. -0.56

Okay, here is my list. What is shrunken log2 fold change for each of these?
1. RRIRLRPPRLPRPRPRPGDPPRP
2. RRIRPRPPRLPRPRPRPYEGPRP
3. RRIRIRPPRLPRPRPRPECHPRP
4. RRIRTRPPRLPRPRPRPQDGPRP
5. RRIRLRPPRLPRPRPRPSGNPRP
6. RRIRWRPPRLPRPRPRPMADPRP

1. 0.251
2. -0.0988
3. 0.0255
4. -0.0217
5. -0.111
6. 0.0452

Go through the list and state shrunken log2 fold change for each entry.
1. RRIRPRPPRLPRPRPRPDGGPRP
2. RRIRFRPPRLPRPRPRPYKIPRP
3. RRIRERPPRLPRPRPRPMMHPRP
4. RRIRSRPPRLPRPRPRPSGAPRP
5. RRIRARPPRLPRPRPRPDYFPRP
6. RRIRLRPPRLPRPRPRPVQNPRP

[-0.129, -0.462, 0.0413, 0.12, -0.0428, 0.0224]

Working through the 4 sequences below one at a time, give shrunken log2 fold change for each.
1. RRIRSRPPRLPRPRPRPCDQPRP
2. RRIRYRPPRLPRPRPRPKEGPRP
3. RRIRIRPPRLPRPRPRPTAAPRP
4. RRIRCRPPRLPRPRPRPTLPPRP

1: -0.0341; 2: -0.186; 3: 0.116; 4: 0.356
